Field: normalized growth. Provide a value for each of the compounds that follow.
# test_method_notes: chemical genetic growth profiling, strain panel (AID 1159580);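 further: tested at 20 µM; growth read once vehicle control cultures reached saturation at 30 °C; 1 = growth at the plate median or of vehicle wells; lower values mean less growth of the strain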
# condition: S. cerevisiae deletion strains, growth OD, locus YJL129C, strain trk1, active compounds read low
Counter-ions that a name gives are not always drawn. The whole screen tested about 5,500 compounds, of which about 2,000 (36%) were called active. Roughly 18% stayed inconclusive and do not appear here. Some of the results follow. Where a SMILES comes first, the peptide text is derived from it. The star is where a group is joined. Tfa = O=C(C(F)(F)F)*
Answer as a number with no unit attached.

Prompt: Quick one: normalized growth for CC1(C)O[C@H]2[C@H](O)C[C@](O)(C(N)=O)C[C@H]2O1 ?
Completion: 1.01

Prompt: Repeat for the following compound: C[C@@H]1C(=O)OC2[C@H](O)C34[C@@H]5OC(=O)[C@@]3(O[C@@H]3OC(=O)[C@H](O)[C@@]34[C@H](C(C)(C)C)[C@H]5O)[C@]21O (stereo not given in full)
Completion: 0.974

Prompt: # iterate: CC(C)C(NC(=O)C(Cc1ccc(O)cc1)NC(=O)C(NC(=O)C(F)(F)F)C(C)C)C(=O)O (stereo not drawn) (Tfa-Val-Tyr-Val-OH; configuration not given here)
Completion: 0.995

Prompt: Follow-up entry: COc1c2ccoc2c(OC)c2oc(=O)ccc12
Completion: 1.02

Prompt: Same question for C[N+]1(C)C2CC(OC(=O)[C@@H](CO)c3ccccc3)CC1C1OC12 (stereo not given in full) please.
Completion: 0.976

Prompt: Record: Oc1ccc(Cl)cc1
Completion: 0.99

Prompt: Further, for Cc1c(S(=O)(=O)O)oc2c1C(=O)C(=O)c1c-2ccc2c1CCCC2(C)C ?
Completion: 0.859

Prompt: Subsequent entry: COc1cc(-c2coc3cc(OC)c(OC)c(OC)c3c2=O)cc(OC)c1OC
Completion: 0.988

Prompt: Now this one: CC1C[C@H]2CC(=O)[C@H]3CCCN4CCC[C@H]2[C@]34C1 (stereo not given in full)
Completion: 1.02

Prompt: Field entry: O=c1[nH]oc2c1CCNC2
Completion: 1

Prompt: Okay, and CC[N+](CC)(CC)CCOc1cccc(OCC[N+](CC)(CC)CC)c1OCC[N+](CC)(CC)CC ?
Completion: 1.01

Prompt: Repeat with COc1cc2occ(-c3ccccc3)c(=O)c2c(OC)c1C
Completion: 0.891

Prompt: Let us now turn to CC(C)NNC(=O)c1ccncc1
Completion: 0.998

Prompt: CC(C)(C)CC(C)(C)c1ccc(O)c(Cc2ccc(Cl)cc2Cl)c1 , same question.
Completion: 0.981

Prompt: Could you do the same for Cc1cc(-c2ccccc2)nnc1NCCN1CCOCC1 , please?
Completion: 0.968
